Origin of measurements: patent US20180344812A1

Record form. Attribute: EC50, CRE-luciferase reporter in HEK293-GLP-2R-CRE cells. Fill in for each entry.
Target: T1, human Glucagon-like peptide 2 receptor (GLP-2R) (human, UniProt O95838 1-553)
T1 sequence (looked up): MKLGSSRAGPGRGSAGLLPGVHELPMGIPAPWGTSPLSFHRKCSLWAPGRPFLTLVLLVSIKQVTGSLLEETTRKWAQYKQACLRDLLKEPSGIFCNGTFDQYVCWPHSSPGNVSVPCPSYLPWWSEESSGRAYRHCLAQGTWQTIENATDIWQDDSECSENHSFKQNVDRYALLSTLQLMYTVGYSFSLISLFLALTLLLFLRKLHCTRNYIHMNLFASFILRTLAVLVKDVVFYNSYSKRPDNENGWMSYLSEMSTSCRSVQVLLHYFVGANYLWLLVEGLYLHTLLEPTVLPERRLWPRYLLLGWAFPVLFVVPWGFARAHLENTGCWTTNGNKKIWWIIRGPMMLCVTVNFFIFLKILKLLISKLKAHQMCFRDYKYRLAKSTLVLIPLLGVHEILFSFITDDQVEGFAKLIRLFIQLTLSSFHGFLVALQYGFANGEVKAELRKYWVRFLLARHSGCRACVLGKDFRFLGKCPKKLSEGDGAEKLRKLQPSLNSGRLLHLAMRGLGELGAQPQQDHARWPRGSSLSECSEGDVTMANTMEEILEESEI
Assay: cell-based or functional assay
Bridges are numbered along the chain shown (N, C = ends). Where no end group is shown, it is not given here. L1 = C4 bis(bromoacetamide) staple without lipid; L3 = myristic acid-PEG-PEG-ornithine staple; L5 = C18 diacid-Lys-PEG2-ornithine staple; L2 = myristic acid-PEG-ornithine staple
State the answer as a number, implicitly in nM.

Lab note: measured EC50, CRE-luciferase reporter in HEK293-GLP-2R-CRE cells of HGDGSFSDCMNTILDCLAARDFINWLIQTKITDPSSGAPPPS (linker 9-16 via L5; also: staple L5 carries C18 diacid-Lys-PEG2-ornithine lipid) [mTA 67: GLP-2 (I) and L5] was 3.1

Lab note: measured EC50, CRE-luciferase reporter in HEK293-GLP-2R-CRE cells of HGDGSFSDEMCTILDNLCARDFINWLIQTKITD (linker 11-18 via L1) [mTA 57: GLP-2 (G) and L1] was 0.046

Lab note: measured EC50, CRE-luciferase reporter in HEK293-GLP-2R-CRE cells of HGDGSFSDCMNTILDCLAARDFINWLIQTKITD (linker 9-16 via L1) [mTA 55: GLP-2 (F) and L1] was 0.064

Lab note: measured EC50, CRE-luciferase reporter in HEK293-GLP-2R-CRE cells of HGDGSFSDEMNTILDNCAARDFICWLIQTKITDPSSGAPPPS (linker 17-24 via L2; also: staple L2 carries myristic acid-PEG-ornithine lipid) [mTA 60: GLP-2 (H) and L2] was 0.068

Lab note: measured EC50, CRE-luciferase reporter in HEK293-GLP-2R-CRE cells of HGDGSFSCEMNTILCALAARDFINWLIQTKITD (linker 8-15 via L1) [mTA 53: GLP-2 (D) and L1] was 14.3

Lab note: measured EC50, CRE-luciferase reporter in HEK293-GLP-2R-CRE cells of HGDGSFSDEMNTILDNCAARDFICWLIQTKITDPSSGAPPPS (linker 17-24 via L5; also: staple L5 carries C18 diacid-Lys-PEG2-ornithine lipid) [mTA 63: GLP-2 (H) and L5] was 2.66

Lab note: measured EC50, CRE-luciferase reporter in HEK293-GLP-2R-CRE cells of HGDGSFSDEMNTILDCLAARDFICWLIQTKITD (linker 16-24 via L1) [mTA 52: GLP-2 (C) and L1] was 5.6

Lab note: measured EC50, CRE-luciferase reporter in HEK293-GLP-2R-CRE cells of HGDGSFSDEMCTILDNLCARDFINWLIQTKITDPSSGAPPPS (linker 11-18 via L3; also: staple L3 carries myristic acid-PEG-PEG-ornithine lipid) [mTA 68: GLP-2 (J) and L3] was 0.028

Lab note: measured EC50, CRE-luciferase reporter in HEK293-GLP-2R-CRE cells of HGDGSFSDEMNTILDNCAARDFICWLIQTKITDPSSGAPPPS (linker 17-24 via L3; also: staple L3 carries myristic acid-PEG-PEG-ornithine lipid) [mTA 61: GLP-2 (H) and L3] was 0.068
